Recorded values, source ChEMBL document CHEMBL1133437.

testName: Concentration required for inhibition of human homologous Disulphide oxidoreductase (hGR) in the presence of GSSG as substrate
Measured IC50, listed per entry.
Report the value in µM with no unit label.

>>> print(df.to_string())
                             smilesnotation  unitdescriptor  measuredvalue
0  CCCCN(CCCC)CCCNC(=O)CCCCC1=C(C)C(=O)c2cccc(O)c2C1=O              µM             41

Continue with the next compound.
[ask] Consider the compound CC1=C(CCCCC(=O)NCCCNCCCNC(=O)CCCCC2=C(C)C(=O)c3cccc(O)c3C2=O)C(=O)c2c(O)cccc2C1=O and give its measured IC50.
[reply] 10

====

systemName: Trypanothione reductase (Trypanosoma cruzi, UniProt P28593)
Sequence (P28593 whole entry): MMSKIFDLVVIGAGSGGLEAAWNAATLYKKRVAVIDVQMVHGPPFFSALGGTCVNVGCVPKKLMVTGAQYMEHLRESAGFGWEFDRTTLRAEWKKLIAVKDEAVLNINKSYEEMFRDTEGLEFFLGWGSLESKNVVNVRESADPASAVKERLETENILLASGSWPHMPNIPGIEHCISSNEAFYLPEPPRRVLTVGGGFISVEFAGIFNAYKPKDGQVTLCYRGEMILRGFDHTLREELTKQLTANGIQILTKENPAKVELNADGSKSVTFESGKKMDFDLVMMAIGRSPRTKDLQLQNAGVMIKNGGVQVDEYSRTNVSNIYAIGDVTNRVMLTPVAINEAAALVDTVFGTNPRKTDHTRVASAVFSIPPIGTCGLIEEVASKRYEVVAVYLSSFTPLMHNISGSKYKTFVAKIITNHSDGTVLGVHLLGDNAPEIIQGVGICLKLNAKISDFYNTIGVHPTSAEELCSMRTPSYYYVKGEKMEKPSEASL
testName: Concentration required for inhibition of Trypanothione reductase (TcTR) from Trypanosoma cruzi in the presence of 50 uM TS2 as substrate
pIC50: −log10 of the molar value.
Label scheme for pIC50: lower than 6 is n, 6 and above is y.

In [3]: df
Out[3]:
                             smilesnotation                                systemname  classlabel
0  CC1=C(CCCCC(=O)NCCCNCCCNC(=O)CCCCC2=C(C)C(=O)c3cccc(O)c3C2=O)C(=O)c2c(O)cccc2C1=O  Trypanothione reductase (Trypanosoma cruzi, UniProt P28593)           y
1  CCCCN(CCCC)CCCNC(=O)CCCCC1=C(C)C(=O)c2cccc(O)c2C1=O  Trypanothione reductase (Trypanosoma cruzi, UniProt P28593)           y
2                    CC1=CC(=O)c2ccccc2C1=O  Trypanothione reductase (Trypanosoma cruzi, UniProt P28593)           n

[ask] Quick check: does CCCCN(CCCC)CCCNC(=O)CCCCC1=C(CCCCC(=O)NCCCN(CCCC)CCCC)C(=O)c2c(O)cccc2C1=O have pIC50 greater than or equal to 6?
[reply] y

[ask] Quick check: does CC1=CC(=O)c2c(O)cccc2C1=O have pIC50 greater than or equal to 6?
[reply] n

====

systemName: Trypanothione reductase (Trypanosoma cruzi)
testName: Percentage inhibition of Trypanothione reductase at 25 uM in the presence of 200 uM DTNBA as substrate
Measured inhibition, listed per entry.
Report the value in % with no unit label.

Answered examples (3):
>>> print(df.to_string())
                             smilesnotation                                systemname  endpointlabel  measuredvalue
0  CCCCN(CCCC)CCCNC(=O)CCCCC1=C(C)C(=O)c2cccc(O)c2C1=O  Trypanothione reductase (Trypanosoma cruzi)     inhibition             88
1  CCCCN(CCCC)CCCNC(=O)CCCCC1=C(C)C(=O)c2ccccc2C1=O  Trypanothione reductase (Trypanosoma cruzi)     inhibition             86
2  CCCCN(CCCC)CCCNC(=O)CCCCC1=C(CCCCC(=O)NCCCN(CCCC)CCCC)C(=O)c2c(O)cccc2C1=O  Trypanothione reductase (Trypanosoma cruzi)     inhibition             81

[ask] Consider the compound CC1=C(CCCCC(=O)NCCCNCCCNC(=O)CCCCC2=C(C)C(=O)c3cccc(O)c3C2=O)C(=O)c2c(O)cccc2C1=O and give its measured inhibition.
[reply] 79
